# experiment_notes: chemical genetic growth profiling, strain panel (AID 1159580);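 also: tested at 20 µM; growth read once vehicle control cultures reached saturation at 30 °C; 1 = growth at the plate median or of vehicle wells; lower values mean less growth of the strain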
# experimental_parameters: S. cerevisiae deletion strains, growth OD, locus YDL101C, strain DUN1, active compounds read low
Out of some 5,500 compounds screened, about 2,000 (36%) were called active. About 18% were inconclusive and are not listed. Some of the results follow.
Give measured normalized growth for each item. Keep answers brief.

smiles | endpoint_name | readout_value
Cc1oc(-c2ccccc2)cc1C(=O)N1CCN(c2ccc(C(F)(F)F)cn2)CC1 | normalized growth | 1 (inactive)
CN(C)c1nc(N(C)C)nc(N(C)C)n1 | normalized growth | 1.01 (inactive)
COc1cc(Cl)c(Cl)cc1Cl | normalized growth | 0.997 (inactive)

Take each entry in turn and give its normalized growth.
1. CCc1cccc(C)c1NC(=O)N1CCN(C(=O)OC(C)(C)C)CC1
2. CN(C)c1nc(=S)ss1
3. COc1ccccc1N1CCN(S(=O)(=O)c2ccc(C(F)(F)F)cc2)CC1

0.987 (inactive)
0.937 (inactive)
1.01 (inactive)
